Reference for the values: paper PMC6321168

- TEST_METHOD_NOTES: Fecal excretion study in rats after oral NS, SF or CNS (LC–MS/MS)
- Format: in vivo
- CONDITION_INFO: rat feces, oral NS 60 mg/kg, 4 h
ENDPOINT: Accumulative excretion amount (µg)
Quick reminder: number only, in µg, skip the unit.

[[record]]
molecule = "CC(C)=CCC[C@](C)(O[C@@H]1O[C@H](CO[C@@H]2O[C@H](CO)[C@@H](O)[C@H](O)[C@H]2O)[C@@H](O)[C@H](O)[C@H]1O)[C@H]1CC[C@]2(C)[C@@H]1[C@H](O)C[C@@H]1[C@@]3(C)CC[C@H](O[C@@H]4O[C@H](CO)[C@@H](O)[C@H](O)[C@H]4O[C@@H]4O[C@H](CO)[C@@H](O)[C@H](O)[C@H]4O)C(C)(C)[C@@H]3CC[C@]12C [ginsenoside Rb1]"
observed = 15.357

[[record]]
molecule = "CC(C)=CCC[C@](C)(O[C@@H]1O[C@H](CO)[C@@H](O)[C@H](O)[C@H]1O)[C@H]1CC[C@]2(C)[C@@H]1[C@H](O)C[C@@H]1[C@@]3(C)CC[C@H](O[C@@H]4O[C@H](CO)[C@@H](O)[C@H](O)[C@H]4O[C@@H]4O[C@H](CO)[C@@H](O)[C@H](O)[C@H]4O)C(C)(C)[C@@H]3CC[C@]12C [ginsenoside Rd]"
observed = 10.755

[[record]]
molecule = "CC(C)=CCC[C@](C)(O[C@@H]1O[C@H](CO)[C@@H](O)[C@H](O)[C@H]1O)[C@H]1CC[C@]2(C)[C@@H]1[C@H](O)C[C@@H]1[C@@]3(C)CC[C@H](O)C(C)(C)[C@@H]3[C@@H](O[C@@H]3O[C@H](CO)[C@@H](O)[C@H](O)[C@H]3O[C@@H]3O[C@@H](C)[C@H](O)[C@@H](O)[C@H]3O)C[C@]12C [ginsenoside Re]"
observed = 4.585


Fill blank: measured Accumulative excretion amount of the molecule CC(C)=CCC[C@](C)(O[C@@H]1O[C@H](CO)[C@@H](O)[C@H](O)[C@H]1O)[C@H]1CC[C@]2(C)[C@@H]1[C@H](O)C[C@@H]1[C@@]3(C)CC[C@H](O)C(C)(C)[C@@H]3[C@@H](O[C@@H]3O[C@H](CO)[C@@H](O)[C@H](O)[C@H]3O)C[C@]12C [ginsenoside Rg1] is ____.
21.063

---

- TEST_METHOD_NOTES: Urinary excretion study in rats after oral NS, SF or CNS (LC–MS/MS)
- Type: in vivo
- CONDITION_INFO: male, Sprague Dawley, rat, urine, oral, oral CNS 110 mg/kg, 120 h
ENDPOINT: concentration at 120 h (ng/mL)
Quick reminder: number only, in ng/mL, skip the unit.

Here is how some compounds turned out for concentration at 120 h.
[[record]]
compound = "CC(C)=CCC[C@](C)(O[C@@H]1O[C@H](CO[C@@H]2O[C@H](CO)[C@@H](O)[C@H](O)[C@H]2O)[C@@H](O)[C@H](O)[C@H]1O)[C@H]1CC[C@]2(C)[C@@H]1[C@H](O)C[C@@H]1[C@@]3(C)CC[C@H](O[C@@H]4O[C@H](CO)[C@@H](O)[C@H](O)[C@H]4O[C@@H]4O[C@H](CO)[C@@H](O)[C@H](O)[C@H]4O)C(C)(C)[C@@H]3CC[C@]12C [ginsenoside Rb1]"
observed = 14

[[record]]
compound = "CC(C)=CCC[C@](C)(O[C@@H]1O[C@H](CO)[C@@H](O)[C@H](O)[C@H]1O)[C@H]1CC[C@]2(C)[C@@H]1[C@H](O)C[C@@H]1[C@@]3(C)CC[C@H](O)C(C)(C)[C@@H]3[C@@H](O[C@@H]3O[C@H](CO)[C@@H](O)[C@H](O)[C@H]3O)C[C@]12C [ginsenoside Rg1]"
observed = 80

[[record]]
compound = "CC(C)=CCC[C@](C)(O[C@@H]1O[C@H](CO)[C@@H](O)[C@H](O)[C@H]1O)[C@H]1CC[C@]2(C)[C@@H]1[C@H](O)C[C@@H]1[C@@]3(C)CC[C@H](O[C@@H]4O[C@H](CO)[C@@H](O)[C@H](O)[C@H]4O[C@@H]4O[C@H](CO)[C@@H](O)[C@H](O)[C@H]4O)C(C)(C)[C@@H]3CC[C@]12C [ginsenoside Rd]"
observed = 10


Now take the following compound into account.
Fill blank: measured concentration at 120 h of the compound CC(C)=CCC[C@](C)(O[C@@H]1O[C@H](CO)[C@@H](O)[C@H](O)[C@H]1O)[C@H]1CC[C@]2(C)[C@@H]1[C@H](O)C[C@@H]1[C@@]3(C)CC[C@H](O)C(C)(C)[C@@H]3[C@@H](O[C@@H]3O[C@H](CO)[C@@H](O)[C@H](O)[C@H]3O[C@@H]3O[C@@H](C)[C@H](O)[C@@H](O)[C@H]3O)C[C@]12C [ginsenoside Re] is ____.
4
